molecular target: AgSla1-D1-D2; assay: SPOT peptide array binding signal intensity (averaged, normalized) (arbitrary units (background-subtracted, floor 0; scale differs between SH3 domains)); higher = stronger binding of the SH3 domain to the peptide
Short version: SPOT peptide array binding signal intensity at least 20 is Condition met, less is Condition not met.

Does NPNRRAPRRPLSTQH have a reported SPOT peptide array binding signal intensity of at least 20?
Condition met

Now the binder GAGERPRLVPRPINV
Condition not met

Now the binder RMVRRRPLRVQFSAR
Condition met

Now the binder EVTPKVPERPSRRKT
Condition not met

Now the binder KKAPPPVVKPKPRNF
Condition not met

Now the binder RRGPAPPPPPRASRP
Condition met

Now the binder MKRSRPSRSIPYTTP
Condition met

Now the binder VQPTAAPATPPRHIS
Condition not met

Now the binder NFLRLLIGLPSQNEL
Condition met

Now the binder RLSFFFPLDPAYIRN
Condition met

Now the binder RKRAPTPPAPSRSEK
Condition met

Now the binder NSMRPPLLIPAATTK
Condition not met

Now the binder PELAPKREAPKPPAN
Condition not met

Now the binder NSVPIMPTLPPRPYI
Condition not met

Now the binder VLRFLGFPLPIFEKG
Condition not met

Now the binder SGVRLPAPPPPPRRG
Condition met

Now the binder LLGRKRPVMERVVDI
Condition not met

Now the binder PAPPPPPRASRPTPN
Condition not met

Now the binder NIKVLLNPKLGKPVK
Condition met

Now the binder YVRRRPRVRLEPLLS
Condition met

Now the binder TEVPIPRRPPPPQAA
Condition not met

Now the binder RSLRKRPTSPSISGS
Condition met

Now the binder TKRKRPARLIFYDSK
Condition met

Now the binder VNIPSPSSSPPPIPK
Condition not met

Now the binder NQARKPFLLPATELS
Condition not met

Now the binder RKNRAPPQRPRFNRE
Condition met

Now the binder NVLRKILEIPLHSFS
Condition not met

Now the binder GKLKHIPRRPYEIER
Condition not met

Now the binder SKIRPTPRKPSRMAT
Condition met
